These entries and their values trace back to ChEMBL document CHEMBL3860066.

- study target: Excitatory amino acid transporter 3 (Homo sapiens)
- Sequence (P43005 whole entry): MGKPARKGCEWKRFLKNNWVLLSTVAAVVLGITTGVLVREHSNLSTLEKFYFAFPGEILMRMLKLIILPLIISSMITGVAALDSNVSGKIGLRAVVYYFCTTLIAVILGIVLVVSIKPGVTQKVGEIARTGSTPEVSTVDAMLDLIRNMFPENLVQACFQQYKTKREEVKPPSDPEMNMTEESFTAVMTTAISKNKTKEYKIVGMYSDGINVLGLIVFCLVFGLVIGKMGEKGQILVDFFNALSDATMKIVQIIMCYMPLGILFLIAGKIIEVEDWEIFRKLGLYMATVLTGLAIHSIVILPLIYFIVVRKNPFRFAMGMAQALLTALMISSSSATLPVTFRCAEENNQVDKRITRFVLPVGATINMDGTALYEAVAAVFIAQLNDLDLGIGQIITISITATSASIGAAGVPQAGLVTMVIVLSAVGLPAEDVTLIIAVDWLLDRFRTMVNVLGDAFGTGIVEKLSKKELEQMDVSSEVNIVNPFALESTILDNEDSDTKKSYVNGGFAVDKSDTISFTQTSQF
- protocol details: Inhibition of [3H]-D-Asp uptake at human EAAT3 expressed in HEK293 cells measured after 3 mins by TopCount method
- Format: cell-based
- cond: hek293; read-out: IC50
measurement kind: pIC50
One number for each entry, as −log10 of the molar value.

-- ask Recorded pIC50 of N[C@H](C(=O)O)C(NC(=O)Oc1ccccc1)C(=O)O (single isomer, unassigned; diastereomer 2) , please.
-- reply 3.52

###

- System: HEK293
- protocol details: Selectivity ratio of IC50 for human EAAT3 expressed in HEK293 cells to IC50 for human EAAT2 expressed in HEK293 cells
- Assay type: cell-based
measurement kind: Ratio IC50
Give bare numbers.

{"compound": "N[C@H](C(=O)O)C(NS(=O)(=O)c1cccc(C(F)(F)F)c1)C(=O)O (mixture of isomers)", "study target": "HEK293", "Ratio IC50": 50}

Now let's try a different one.
-- ask Recorded Ratio IC50 of N[C@H](C(=O)O)C(NS(=O)(=O)c1cccc2ccccc12)C(=O)O (mixture of isomers) , please.
-- reply 5

###

- study target: Excitatory amino acid transporter 2 (Homo sapiens, UniProt P43004)
- protocol details: Inhibition of [3H]-D-Asp uptake at human EAAT2 expressed in HEK293 cells measured after 3 mins by TopCount method
- Format: cell-based
- cond: read-out: IC50
measurement kind: pIC50
Numbers only, as −log10 of the molar value.

Use the examples below as a reference point.
{"molecule": "COc1ccc(S(=O)(=O)NC(C(=O)O)[C@H](N)C(=O)O)cc1 (mixture of isomers)", "pIC50": 4.52}
{"molecule": "N[C@H](C(=O)O)C(NS(=O)(=O)c1ccccc1Cl)C(=O)O (mixture of isomers)", "pIC50": 5.48}
{"molecule": "N[C@H](C(=O)O)C(NC(=O)Oc1ccccc1)C(=O)O (single isomer, unassigned; diastereomer 2)", "pIC50": 3.52}
{"molecule": "N[C@H](C(=O)O)C(NS(=O)(=O)c1ccc(F)cc1)C(=O)O (mixture of isomers)", "pIC50": 5.33}
{"molecule": "Nc1ccc(S(=O)(=O)NC(C(=O)O)[C@H](N)C(=O)O)cc1 (mixture of isomers)", "pIC50": 5.33}

Please look at the items below and tell me pIC50 for each one, in order.
1. N[C@H](C(=O)O)C(NS(=O)(=O)Cc1ccccc1)C(=O)O (mixture of isomers)
2. Cc1ccc(S(=O)(=O)NC(C(=O)O)[C@H](N)C(=O)O)cc1 (mixture of isomers)

-- reply
1. 4.22
2. 5.48
